B1: Flag-CNK^2–549 [Drosophila] / GST-HYP [Drosophila] (parent complex)
chain 1: AYINIAEWTPDQVTDWIKGLDESMKGYLYEFSKQEIGGRALLNIRPYELENLGMLRIGHQEIVLEAVENLRNFHYHLKNDNLQFMALHVATAAKNLHRELARNHAESTKIDTRILHDITRTIATLKPLVGSLERTPFRKQEMYREYCGNVLKCGLELATIAHRDRFALQPVPAIRQSAERLENLANFVIQDISDPMVLQPASLNLVTLKKRESELGFNIESSYNGIHRVTDIKYNSPAHNSGKIEDGDEIVQINYQTVVGWQHRTVLEHLREALPDVVLTVKKRPKHTKMFGQIYMQPYRLPSKKRNMAARWAAQMPSPRAAFLTLDTEQLATGGTGSAVPDPSKSLSSEKREVLTKANPVSSASDSDSSCSDIPTPTDPKLAAREIRLYYPKPRALLQRRNTICGCEYLSLKNSDLVVPSWHERKPGIGSPTNCDPGSPSIRDKSISFGYGLEMAARPTTCIGIAGDTSTDKARRMFHEARKLKQLTEDSQREFLVDRYKPGVSKVVRFDAKEDYVMKNEKFICNVENTILETFEPIPFADEGDEDA
chain 2: MGEETINSTQNKTRTKTTRPKAVYLWTVSDVLKWYRRHCGEYTQYEQLFAQHDITGRALLRITDSSLQRMGVTDNRDREAIWREIVKQRLKTDIMEIRDMERLNIY

# Variants of: B1
# Assay protocol: GST pull-down, immunoblot quantification; S2 cells; only Flag-CNK2–549 and GST-HYP co-expressed; anti-Flag (CNK) blot; parent: 1
Endpoint: ratio to parent

{"Variant": "chain 1 D194K, chain 1 V197E", "Endpoint": "ratio to parent", "Observed result": 1.03}
{"Variant": "chain 1 S193A", "Endpoint": "ratio to parent", "Observed result": 0.81}
{"Variant": "chain 1 Q199A", "Endpoint": "ratio to parent", "Observed result": 0.83}
{"Variant": "chain 1 V197E", "Endpoint": "ratio to parent", "Observed result": 0.77}
{"Variant": "chain 1 M196E", "Endpoint": "ratio to parent", "Observed result": 0.82}
{"Variant": "chain 1 D194K", "Endpoint": "ratio to parent", "Observed result": 0.76}
